# Tested on: Corynebacterium sp.
# ASSAY NOTES: Antibacterial activity against Corynebacterium sp. by broth microdilution method
# Format: functional
Kindly state MIC90 for each of the entries shown.
Just the number in µg/mL, nothing appended.

MIC90 lookup needed for C[C@H]1COc2c(N3CCN(C)CC3)c(F)cc3c(=O)c(C(=O)O)cn1c23.C[C@H]1COc2c(N3CCN(C)CC3)c(F)cc3c(=O)c(C(=O)O)cn1c23.O , thanks. 32

Try this molecule next: CC(=O)NC[C@H]1CN(c2ccc(N3CCOCC3)c(F)c2)C(=O)O1 1

Ok, now C/C(=C\c1cc(F)c(OC[C@H](F)C2CC2)cc1F)C(=O)N[C@@H]1[C@H](O)[C@@H](O)[C@H]2OCO[C@H]2[C@@H]1O 1

Then this molecule: CN[C@H](CC(C)C)C(=O)N[C@H]1C(=O)N[C@@H](CC(N)=O)C(=O)N[C@H]2C(=O)N[C@H]3C(=O)N[C@H](C(=O)N[C@H](C(=O)O)c4cc(O)cc(O)c4-c4cc3ccc4O)[C@H](O)c3ccc(c(Cl)c3)Oc3cc2cc(c3O[C@@H]2O[C@H](CO)[C@@H](O)[C@H](O)[C@H]2O[C@H]2C[C@](C)(N)[C@H](O)[C@H](C)O2)Oc2ccc(cc2Cl)[C@H]1O 1
